tested on: HeLa Kyoto; experiment: thermal stability score vs G1/S (z-score of summed log2 fold changes over temperatures); higher = more thermally stable than in G1/S; conditions: cell cycle stage: mitosis;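 also: synchronized HeLa Kyoto cells, proteins quantified by TMT10plex mass spectrometry, three biological replicates, mitosis taken 0.5 h after nocodazole release, G1/S directly after double thymidine block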
Each entry below carries its recorded thermal stability score.

Primary Sequence: MSCESSMVLGYWDIRGLAHAIRLLLEFTDTSYEEKRYTCGEAPDYDRSQWLDVKFKLDLDFPNLPYLLDGKNKITQSNAILRYIARKHNMCGETEEEKIRVDIIENQVMDFRTQLIRLCYSSDHEKLKPQYLEELPGQLKQFSMFLGKFSWFAGEKLTFVDFLTYDILDQNRIFDPKCLDEFPNLKAFMCRFEALEKIAAYLQSDQFCKMPINNKMAQWGNKPVC [GSTM3]
thermal stability score: 3.37

Primary Sequence: MAATALLEAGLARVLFYPTLLYTLFRGKVPGRAHRDWYHRIDPTVLLGALPLRSLTRQLVQDENVRGVITMNEEYETRFLCNSSQEWKRLGVEQLRLSTVDMTGIPTLDNLQKGVQFALKYQSLGQCVYVHCKAGRSRSATMVAAYLIQVHKWSPEEAVRAIAKIRSYIHIRPGQLDVLKEFHKQITARATKDGTFVISKT [PTPMT1]
thermal stability score: -0.764

Primary Sequence: MDAPRQVVNFGPGPAKLPHSVLLEIQKELLDYKGVGISVLEMSHRSSDFAKIINNTENLVRELLAVPDNYKVIFLQGGGCGQFSAVPLNLIGLKAGRCADYVVTGAWSAKAAEEAKKFGTINIVHPKLGSYTKIPDPSTWNLNPDASYVYYCANETVHGVEFDFIPDVKGAVLVCDMSSNFLSKPVDVSKFGVIFAGAQKNVGSAGVTVVIVRDDLLGFALRECPSVLEYKVQAGNSSLYNTPPCFSIYVMGLVLEWIKNNGGAAAMEKLSSIKSQTIYEIIDNSQGFYVCPVEPQNRSKMNIPFRIGNAKGDDALEKRFLDKALELNMLSLKGHRSVGGIRASLYNAVTIEDVQKLAAFMKKFLEMHQL [PSAT1]
thermal stability score: -0.769

Primary Sequence: MASGVTVNDEVIKVFNDMKVRKSSTQEEIKKRKKAVLFCLSDDKRQIIVEEAKQILVGDIGDTVEDPYTSFVKLLPLNDCRYALYDATYETKESKKEDLVFIFWAPESAPLKSKMIYASSKDAIKKKFTGIKHEWQVNGLDDIKDRSTLGEKLGGNVVVSLEGKPL [CFL2]
thermal stability score: -3.81

Primary Sequence: MSGGKYVDSEGHLYTVPIREQGNIYKPNNKAMADELSEKQVYDAHTKEIDLVNRDPKHLNDDVVKIDFEDVIAEPEGTHSFDGIWKASFTTFTVTKYWFYRLLSALFGIPMALIWGIYFAILSFLHIWAVVPCIKSFLIEIQCISRVYSIYVHTVCDPLFEAVGKIFSNVRINLQKEI [CAV1]
thermal stability score: -3.05

Primary Sequence: MESALAVPRLPPHDPGTPVLSVVDMHTGGEPLRIVLAGCPEVSGPTLLAKRRYMRQHLDHVRRRLMFEPRGHRDMYGAVLVPSELPDAHLGVLFLHNEGYSSMCGHAVLALGRFALDFGLVPAPPAGTREARVNIHCPCGLVTAFVACEDGRSHGPVRFHSVPAFVLATDLMVDVPGHGKVMVDIAYGGAFYAFVTAEKLGLDICSAKTRDLVDAASAVTEAVKAQFKINHPDSEDLAFLYGTILTDGKDAYTKEPTTNICVFADEQVDRSPTGSGVTARIALQYHKGLLELNQMRAFKSSATGSVFTGKAVREAKCGDFKAVIVEVSGQAHYTGTASFIIEDDDPLRDGFLLK [L3HYPDH]
thermal stability score: 0.62
